Listed here are sequences together with their documented PBM binding z-score.
- System: PPARg DBDmut:RXRa IVT, anti-PPARg (DBD mutation: PPARg1 K132A/R137A, NR concentration 270 nM, RXRa partner concentration 90 nM)
- Protocol summary: PBM binding z-score (relative to random genomic background probes); higher = stronger binding; sequences stand for … in GC…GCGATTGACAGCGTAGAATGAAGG
I only need the number, thanks.

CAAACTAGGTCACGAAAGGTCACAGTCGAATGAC    2.02
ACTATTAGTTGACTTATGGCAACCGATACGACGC    1.06

Please look up its PBM binding z-score: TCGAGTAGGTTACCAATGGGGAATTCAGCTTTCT
-0.097

Same lookup for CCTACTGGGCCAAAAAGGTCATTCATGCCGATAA , please.
-0.431

Similarly, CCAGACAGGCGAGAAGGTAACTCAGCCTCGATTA ?
-0.981

Entry to check: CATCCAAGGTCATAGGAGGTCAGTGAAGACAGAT
3.02

And what about the sequence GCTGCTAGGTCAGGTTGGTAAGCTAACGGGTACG ?
-1.03

Try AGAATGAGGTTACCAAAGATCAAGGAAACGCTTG next.
0.922

These entries and their values trace back to the supplement of paper PMC6555819.
